Measured Ki on 5-hydroxytryptamine receptor 1A (Homo sapiens, UniProt P08908) follows.
Sequence (P08908 whole entry): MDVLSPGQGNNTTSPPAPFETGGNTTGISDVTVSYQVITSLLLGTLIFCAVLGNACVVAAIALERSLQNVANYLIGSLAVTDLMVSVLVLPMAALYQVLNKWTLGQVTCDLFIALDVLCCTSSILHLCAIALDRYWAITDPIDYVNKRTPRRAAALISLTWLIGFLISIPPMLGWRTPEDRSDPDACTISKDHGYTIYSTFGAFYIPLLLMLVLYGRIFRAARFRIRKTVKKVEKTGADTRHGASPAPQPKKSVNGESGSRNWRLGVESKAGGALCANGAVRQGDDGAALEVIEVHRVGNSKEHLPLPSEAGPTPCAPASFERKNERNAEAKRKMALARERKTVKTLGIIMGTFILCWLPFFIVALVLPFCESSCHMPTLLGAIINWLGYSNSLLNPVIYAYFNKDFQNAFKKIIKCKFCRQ
assay-endpoint: Ki (nM)

Guide cases for Ki, answers given:
- compound: "O=C1COc2ccc(OCC3CCCN(CCOc4cccc5ncccc45)C3)cc2N1 (centres undefined)"
  result-unit: "nM"
  Ki: 1.58
- compound: "O=C1COc2ccc(OCC3CCN(CCOc4cccc5ncccc45)C3)cc2N1 (centres undefined)"
  result-unit: "nM"
  Ki: 1.26
- compound: "O=C1COc2ccc(OC3CCN(CCOc4cccc5ncccc45)CC3)cc2N1"
  result-unit: "nM"
  Ki: 12.6

(1) O=C1COc2ccc(OC3CCN(CCOc4cccc5cccnc45)CC3)cc2N1
(2) O=C1COc2ccc(OC3CCN(CCOc4ccnc5ccccc45)CC3)cc2N1
(3) O=C1COc2ccc(CN3CCN(CCOc4cccc5ncccc45)CC3)cc2N1
Exam item: Sort these compounds on Ki so the largest reading comes first. Your reply should list the labels following the order given in the request.
Marked response: 2, 3, 1
(2: 100 nM, 3: 10 nM, 1: 6.31 nM)
